Cited source for all entries: patent US20260258115A1

EXPERIMENTAL_SYSTEM: RSV postfusion F (postF), F deltaFP (Respiratory Syncytial Virus)
MEASUREMENT_PROTOCOL: BLI, IgG on anti-human IgG sensor, 100 nM antigen
QUANTITY_KIND: Kd (nM)

| BINDER | QUANTITY_KIND | ENDPOINT_VALUE |
| --- | --- | --- |
| ADI-41215 (antibody, V domains shown) VH: QVQLVESGGGVVRPGGSLRLSCAASGFTFDDYGMSWVRQAPGKGLEWVSGINWSGGSTDYADSVKGRFTISRDNAKNSLYLQMNSLRAEDTALYYCAKEGQEWELLPWYFDLWGRGTLVTVSS VL: QPVLTQPASVSGSPGQSITIPCTGTSSDVGIYNLVSWYQQHPGKAPKLMIYDVSKRPSGVSNRFSGSKSGNTASLTISGLQAEDEADYYCCSYAGGSTYVFGTGTKLTVL | Kd | 0.563 |
| ADI-41166 (antibody, V domains shown) VH: EVQLVQSGAEVKKPGASVKVSCKTSGYTFTGDYLHWVRQAPGQGLEWMGRLNPKSGGTVYAQRFQGRVTMTGDTSVTTAYMQLTRLRSDDTAIYYCARGIPVSGPVSIDYWGQGTLVTVSS VL: QSVLTQPASLSGSPGQSITISCTGTSSDVGGYGYVSWYQQHPGKAPKLMIYDVANRPSGVSHRFSGSKSGNTASLTISGLQADDEADYYCSSYTRSNTVVFGGGTKLTVL | Kd | 0.44 |
| ADI-41162 (antibody, V domains shown) VH: EVQLVQSGAEVKKPGSSVKVSCKASGVTGGTFSSYAISWVRQAPGQGLEWMGGIMPMFGTTNYAQKFQGRVTITADKSTSTAYMELSSLRSEDTAVYYCARDYRDFSPHLDYYYMDVWGKGTTVTVSS VL: DIRLTQSPGTLSLSPGERATLSCRASQSVSTSYLAWYQQKPGQAPRLLIYGASNRATGIPDRFSGSGSGTDFTLTISRLEPEDFAVYYCQQYGRTSWTFGQGTKVDIK | Kd | 0.748 |
| ADI-41224 (antibody, V domains shown) VH: EVQLVETGGGLVQPGRSLRLSCTASGFTFGDYAMNWVRQAPGKGLEWIGIIRTKTYGGTTEYAASVKGRFTISRDDSKGIAYLQMNSLKTEDTGVYYCTMPVLNMDVWGQGTTVTVSS VL: QPVLTQPHSVSESPGKTVTISCTRNIGNIASNYVQWYQQRPGSSPTTVIYEDNQRPSGVPDRFSGSIDISSNSASLTISGLKTEDEADYYCQSYDSNNPWVFGGGTQLTVL | Kd | 0.558 |
| ADI-41230 (antibody, V domains shown) VH: QVQLVQSGAEVKKPGESLKISCKASGYSFTSHYWIGWVRQMPGKGLEWMGFIFPGDSDTRYSPSLQGQVTISADKSTNTAYLQWNSLKASDTAMYYCARLEYLVSGFEYWGQGTLVTVSS VL: QPGLTQPHSVSESPGKTVTISCTRSSGSIASNYVHWYQQRPGSFPTTVIYEDNQRPSGVPDRFSGSIDSSSNSASLTISGLRTEDEADYYCQSYDSSNPVVFGGGTKVTVL | Kd | 0.407 |
